A collection of compounds and their measured UI
test: Gastrointestinal toxicity in rat assessed as ulcer index at 20 mg/kg, po; assay type: organism-based; conditions: in vivo
// no unit string in output, number only

As a guide, the following entries are already answered.
{"Compound smiles": "Cc1ccccc1NC(=O)c1c2[nH]cnc(=O)c2c2n1CCC2", "UI": 17.4}
{"Compound smiles": "N#Cc1c(N)c(C(=O)Nc2ccccc2Cl)n2c1CCC2", "UI": 9.2}
{"Compound smiles": "O=C(Nc1ccccc1Cl)c1c2[nH]cnc(=O)c2c2n1CCC2", "UI": 15.1}

Pending compound:
Which UI is reported for this compound? Cc1ccccc1NC(=O)c1c(N)c(C#N)c2n1CCC2
11.3
